# Test system: HCT-116 colon
# Assay name: NCI-60 one-dose screen, 48 h (100 = growth as untreated, 0 = no growth, -100 = all killed)
# Run conditions: 10 µM unless noted
Compounds without any hit were thinned out: in the full panel of roughly 83,000, 20% have a hit.
For each of the compounds below, state its growth.
Give bare numbers, in %.

Here is how some compounds turned out for growth.
O=[N+]([O-])c1ccc2c(c1)Cc1cc(F)ccc1-2 102
O=C1/C(=C/c2ccc(Cl)cc2)SC(=S)N1CCc1ccc(O)cc1 102
O=c1cc(CSc2nnc(SCc3cc(=O)oc4c3ccc3ccccc34)o2)c2ccc3ccccc3c2o1 104

Batch of 2 compounds: report growth for each.
1. COc1ccc(Nc2c3c4c(cccc4[nH]c2=O)C(=O)c2ccccc2-3)cc1
2. N#CCCN=Nc1c(O)[nH]c2ccc([N+](=O)[O-])cc12

1: 4.08; 2: 96.5

Batch of 5 compounds: report growth for each.
1. COc1cc2c(cc1-c1c(C)noc1C)ncc1nc(C3CCCC3)n([C@H](C)COC(F)F)c12
2. COc1ccc(-n2nc(C)c3c(Oc4ccc(NC(=O)Nc5c(Cl)cccc5Cl)cc4)ncnc32)cc1
3. CCN(CC)CCCCNc1c2ccc(Cl)cc2nc2ccc(OC)cc12
4. CCCSc1ccc2nc(NC(=O)OC)[nH]c2c1
5. O=C1c2cccc3cccc(c23)C(=O)N1CCCCN1CCN(CCCCOc2ccc(-c3nc4ccc(N5CCOCC5)cc4[nH]3)cc2)CC1

[31, 109, -39.5, 15.5, 69.1]

###

# Tested on: SK-MEL-28 melanoma
# Assay name: NCI-60 one-dose screen, 48 h (100 = growth as untreated, 0 = no growth, -100 = all killed)
# Run conditions: 10 µM unless noted
The panel holds about 83,000 compounds, 20% with a hit somewhere; the sample as a whole holds those more often.
Measured attribute: growth (%)
Give bare numbers, in %.

Compound	Scale unit	growth
COc1ccc(S(=O)(=O)N2CCCCCC2)cc1NC(=O)c1[nH]c(C)c2c1CCCCC2=O	%	49.8
Cn1cccc1-c1nc2c3c(ccc2[nH]1)C(=O)c1ccccc1C3=O	%	117
COc1ccc(Nc2cc(C)nc(N3CCN(c4ccnc5cc(Cl)ccc45)CC3)n2)cc1	%	59.9
N#C/C(=C\c1ccc(-c2ccc(Cl)c(Cl)c2)o1)c1nc(-c2ccco2)cs1	%	114
Cc1ccc(C(SCC(N)C(=O)O)(c2ccccc2)c2ccc(C)cc2)cc1 (stereo not given)	%	30

Batch of 8 compounds: report growth for each.
1. Clc1ccc2nc3nc4ccc[nH]c4cc3c2c1
2. Cc1ccc(/C=C2\SC(=S)N(CC(=O)NCCCN3CCOCC3)C2=O)cc1
3. COc1ccc(S(=O)(=O)N2CC3(COC3)C2)cc1NC(=O)c1[nH]c(C)c2c1CCCCC2=O
4. O=C1Nc2cc(-c3ccc(O)cc3)ccc2/C1=C/c1ccc[nH]1
5. CCn1c(Cc2ccccc2Nc2c(Cl)cccc2Cl)nnc1SCC(=O)NN1C(=O)/C(=C/c2cc(OC)c(O)c(OC)c2)SC1=S
6. CCn1c(O)c(/C=N/NC(=O)C(C)c2ccc(CC(C)C)cc2)sc1=S (stereo not given)
7. O=C(Oc1cccnc1)c1ccsc1Nc1ccnc(C(F)(F)F)c1
8. CCc1nc(N)nc(N)c1C#CC(C)c1cc(-c2ccnc(C)c2)c2oc(C)nc2c1 (stereo not given)

1: 111; 2: 100; 3: 73.7; 4: 23.6; 5: 45.7; 6: 69.6; 7: 89.3; 8: 41.1
